test system: AR / CBP ternary complex (Homo sapiens, UniProt P10275+Q92793)
Sequence (P10275 whole entry): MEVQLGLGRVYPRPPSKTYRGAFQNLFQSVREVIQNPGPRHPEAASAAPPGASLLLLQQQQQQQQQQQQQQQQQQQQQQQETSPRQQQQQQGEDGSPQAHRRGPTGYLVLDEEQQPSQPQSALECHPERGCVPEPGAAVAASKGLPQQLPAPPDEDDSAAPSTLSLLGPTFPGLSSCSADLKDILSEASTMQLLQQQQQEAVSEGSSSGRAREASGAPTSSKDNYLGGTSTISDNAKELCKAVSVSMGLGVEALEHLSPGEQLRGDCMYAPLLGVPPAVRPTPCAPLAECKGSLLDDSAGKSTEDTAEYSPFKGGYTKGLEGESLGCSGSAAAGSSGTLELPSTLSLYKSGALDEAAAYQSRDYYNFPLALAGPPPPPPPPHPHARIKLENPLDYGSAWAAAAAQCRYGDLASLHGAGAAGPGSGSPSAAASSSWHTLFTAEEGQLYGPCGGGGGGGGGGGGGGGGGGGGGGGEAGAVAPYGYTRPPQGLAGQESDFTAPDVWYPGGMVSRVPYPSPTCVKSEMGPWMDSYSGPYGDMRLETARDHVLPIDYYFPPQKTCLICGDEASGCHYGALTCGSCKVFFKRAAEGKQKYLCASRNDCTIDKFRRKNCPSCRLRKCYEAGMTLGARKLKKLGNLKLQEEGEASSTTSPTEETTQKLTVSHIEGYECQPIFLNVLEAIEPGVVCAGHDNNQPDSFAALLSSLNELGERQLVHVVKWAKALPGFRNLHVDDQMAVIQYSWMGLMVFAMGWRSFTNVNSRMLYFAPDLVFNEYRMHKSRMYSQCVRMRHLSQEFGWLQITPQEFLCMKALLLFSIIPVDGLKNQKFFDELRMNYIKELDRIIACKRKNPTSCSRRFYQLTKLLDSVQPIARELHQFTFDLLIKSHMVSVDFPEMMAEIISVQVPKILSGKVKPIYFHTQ
Sequence (Q92793 2-2442): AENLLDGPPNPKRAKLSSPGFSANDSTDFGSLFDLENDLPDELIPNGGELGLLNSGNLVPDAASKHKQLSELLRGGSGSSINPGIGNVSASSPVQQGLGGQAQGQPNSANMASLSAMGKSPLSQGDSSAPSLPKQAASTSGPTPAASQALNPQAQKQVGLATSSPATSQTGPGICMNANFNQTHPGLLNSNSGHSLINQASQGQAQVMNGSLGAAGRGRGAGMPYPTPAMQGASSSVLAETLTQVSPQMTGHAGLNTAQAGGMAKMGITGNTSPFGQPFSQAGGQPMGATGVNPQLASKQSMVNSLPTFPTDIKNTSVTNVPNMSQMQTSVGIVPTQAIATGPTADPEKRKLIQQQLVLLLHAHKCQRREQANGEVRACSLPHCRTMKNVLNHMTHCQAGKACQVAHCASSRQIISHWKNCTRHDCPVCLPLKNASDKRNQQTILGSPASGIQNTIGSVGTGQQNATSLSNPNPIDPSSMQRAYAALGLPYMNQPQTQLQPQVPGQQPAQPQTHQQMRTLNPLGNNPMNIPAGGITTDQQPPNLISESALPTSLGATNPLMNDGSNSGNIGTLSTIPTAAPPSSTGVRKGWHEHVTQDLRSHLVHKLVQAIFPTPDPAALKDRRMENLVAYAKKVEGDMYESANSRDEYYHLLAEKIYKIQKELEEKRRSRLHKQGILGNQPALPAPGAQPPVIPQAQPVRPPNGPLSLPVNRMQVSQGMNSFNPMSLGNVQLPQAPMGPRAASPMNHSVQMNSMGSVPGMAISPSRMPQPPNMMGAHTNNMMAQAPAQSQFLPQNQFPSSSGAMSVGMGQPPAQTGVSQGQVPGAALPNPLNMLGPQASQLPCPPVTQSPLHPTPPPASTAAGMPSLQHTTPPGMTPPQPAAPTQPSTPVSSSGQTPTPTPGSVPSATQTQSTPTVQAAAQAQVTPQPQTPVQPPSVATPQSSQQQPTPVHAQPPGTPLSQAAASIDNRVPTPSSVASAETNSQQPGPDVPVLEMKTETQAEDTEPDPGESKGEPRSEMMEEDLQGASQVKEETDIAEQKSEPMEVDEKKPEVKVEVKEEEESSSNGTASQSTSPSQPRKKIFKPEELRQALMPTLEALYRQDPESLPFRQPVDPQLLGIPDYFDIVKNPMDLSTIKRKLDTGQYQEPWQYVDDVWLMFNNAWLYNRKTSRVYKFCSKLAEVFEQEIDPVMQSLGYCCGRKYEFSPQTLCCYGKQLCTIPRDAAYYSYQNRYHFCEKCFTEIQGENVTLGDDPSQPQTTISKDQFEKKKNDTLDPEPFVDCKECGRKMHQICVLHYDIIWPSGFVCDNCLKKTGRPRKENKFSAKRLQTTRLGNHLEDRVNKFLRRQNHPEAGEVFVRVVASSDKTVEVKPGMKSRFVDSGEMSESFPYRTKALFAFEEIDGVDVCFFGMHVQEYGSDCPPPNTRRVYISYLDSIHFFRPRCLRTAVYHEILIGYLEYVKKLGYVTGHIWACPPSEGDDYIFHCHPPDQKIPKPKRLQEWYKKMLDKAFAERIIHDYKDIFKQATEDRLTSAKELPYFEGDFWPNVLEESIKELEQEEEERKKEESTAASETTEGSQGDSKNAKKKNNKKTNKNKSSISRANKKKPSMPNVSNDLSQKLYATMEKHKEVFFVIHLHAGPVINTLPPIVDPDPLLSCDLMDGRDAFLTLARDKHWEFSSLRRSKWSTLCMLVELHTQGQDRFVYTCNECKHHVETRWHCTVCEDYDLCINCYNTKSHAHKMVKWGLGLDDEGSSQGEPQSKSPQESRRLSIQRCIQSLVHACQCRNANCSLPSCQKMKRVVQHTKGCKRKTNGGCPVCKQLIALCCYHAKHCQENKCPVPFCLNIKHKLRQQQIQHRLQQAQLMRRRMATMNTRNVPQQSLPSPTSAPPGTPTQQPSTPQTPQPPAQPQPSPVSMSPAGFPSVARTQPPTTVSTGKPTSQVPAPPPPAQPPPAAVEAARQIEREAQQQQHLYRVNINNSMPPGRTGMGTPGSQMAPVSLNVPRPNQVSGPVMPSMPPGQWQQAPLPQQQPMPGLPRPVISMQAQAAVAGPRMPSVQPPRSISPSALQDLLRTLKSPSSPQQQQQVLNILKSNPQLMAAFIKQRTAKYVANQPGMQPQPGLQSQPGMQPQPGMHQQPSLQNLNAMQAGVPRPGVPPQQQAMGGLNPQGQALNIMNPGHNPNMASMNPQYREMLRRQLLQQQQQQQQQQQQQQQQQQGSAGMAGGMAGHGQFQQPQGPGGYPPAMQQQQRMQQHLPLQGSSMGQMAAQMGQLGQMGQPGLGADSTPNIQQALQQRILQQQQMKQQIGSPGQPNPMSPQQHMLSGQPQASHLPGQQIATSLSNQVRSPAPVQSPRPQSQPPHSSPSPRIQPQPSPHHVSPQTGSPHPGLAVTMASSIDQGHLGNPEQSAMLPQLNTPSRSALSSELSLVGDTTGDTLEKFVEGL
protocol text: Ternary complex formation assay (sandwich ELISA, AR capture, CBP antibody detection) in VCaP cell lysates
Assay type: cell-based
assay setup: treated 1.5 hours, rabbit CBP or p300 antibody detection, average, read-out: Average Ternary Complex
Please go through the items and note down their EC50.

I would be grateful if you could share the reported EC50 for CN1C(=O)CCc2cc(-c3cccc4cc(-c5ccc(CCC6CCN(c7ccc(C(=O)N[C@H]8CC[C@H](Oc9ccc(C#N)c(Cl)c9)CC8)nn7)CC6)nc5)ncc34)ccc21 .
10 to 100 nM

Would you mind doing CC(=O)N1CCc2c(c(N3CCCc4cc(-c5cnn(C)c5)c(C(F)F)cc43)nn2[C@H]2CC[C@H](OC3CCN(c4ccc(C(=O)N[C@H]5CC[C@H](Oc6ccc(C#N)c(Cl)c6)CC5)nn4)CC3)CC2)C1 as well?
< 1 nM

Another compound to look at: Cc1cc2c(N3CCN(C)c4cc(C5CC5)ncc43)cc(N3CCN(CC4CCN(c5ccc(C(=O)N[C@H]6CC[C@H](Oc7ccc(C#N)c(Cl)c7)CC6)nn5)CC4)CC3)cc2n(C)c1=O
1 to 10 nM

Same lookup for CC(=O)N1CCc2c(c(N3CCCc4cc(-c5cnn(C)c5)c(C(F)F)cc43)nn2C2CCN(CC3CCN(c4ccc(C(=O)N[C@H]5CC[C@H](Oc6ccc(C#N)c(Cl)c6)CC5)cc4)CC3)CC2)C1 , please.
< 1 nM

Another compound to look at: CC(=O)N1CCc2c(c(N3CCCc4cc(-c5ncco5)c(C(F)F)cc43)nn2C2CCN(CC3CCN(c4ccc(C(=O)N[C@H]5CC[C@H](Oc6ccc(C#N)c(Cl)c6)CC5)nn4)CC3)CC2)C1
< 1 nM

Next record, please: CC(=O)N1CCc2c(c(N3CCCc4cc(-c5cnn(C)c5)c(C(F)F)cc43)nn2[C@H]2CC[C@]3(CCCN(C4CN(c5ccc(C(=O)N[C@H]6CC[C@H](Oc7ccc(C#N)c(Cl)c7)CC6)nn5)C4)C3)CC2)C1
< 1 nM

Another compound to look at: CC(=O)N1CCc2c(c(N3CCCc4cc(-c5cnn(C)c5)c(C(F)F)cc43)nn2C2CCN([C@@H]3CCN(c4ccc(C(=O)N[C@H]5CC[C@H](Oc6ccc(C#N)c(Cl)c6)CC5)nn4)C3)CC2)C1
< 1 nM

Param item: Cn1c(=O)n(C)c2cc(-c3cccc4cc(-c5ccc(CCC6CCN(c7ccc(C(=O)N[C@H]8CC[C@H](Oc9ccc(C#N)c(Cl)c9)CC8)nn7)CC6)nc5)ncc34)ccc21
1 to 10 nM

Same thing, different compound: CC(=O)N1CCc2c(c(N3CCCc4cc(-c5cnn(C)c5)c(C(F)F)cc43)nn2C2CCC3(CC2)CCN(C2CN(c4ccc(C(=O)NC5CCC(Oc6ccc(C#N)c(Cl)c6)CC5)nn4)C2)CC3)C1 (stereo not drawn)
< 1 nM

Follow-up entry: CC(=O)N1CCc2c(c(N3CCCc4cc(C#N)ccc43)nn2[C@H]2C[C@H](CC3CCN(c4ccc(C(=O)N[C@H]5CC[C@H](Oc6ccc(C#N)c(Cl)c6)CC5)nn4)CC3)C2)C1
1 to 10 nM

Queued: CC(=O)N1CCc2c(c(N3CCCc4cc(-c5ccc(OC6CC7(CCN(c8ccc(C(=O)N[C@H]9CC[C@H](Oc%10ccc(C#N)c(Cl)c%10)CC9)nn8)CC7)C6)cc5)c(C(F)F)cc43)nn2C2CCOCC2)C1
< 1 nM

Now try Cc1cc2c(N3CCN(C)c4cc(-c5cnn(C)c5)c(C#N)cc43)cc(OC3CCN(c4ccc(C(=O)N[C@H]5CC[C@H](Oc6ccc(C#N)c(Cl)c6)CC5)nn4)CC3)cc2n(C)c1=O .
> 100 nM

How about this compound: CC(=O)N1CCc2c(c(N3CCCc4cc(-c5cnn(C)c5)c(C(F)F)cc43)nn2CC2CC3(CCN(c4ccc(C(=O)N[C@H]5CC[C@H](Oc6ccc(C#N)c(Cl)c6)CC5)nn4)CC3)C2)C1
> 100 nM

Another compound to look at: C[C@@H]1CC(=O)Nc2cc(C3CCN(CC4CCN(c5ccc(C(=O)N[C@H]6CC[C@H](Oc7ccc(C#N)c(Cl)c7)CC6)nn5)CC4)CC3)cc(-c3ccc4c(c3)c(-c3cnn(C)c3)nn4C)c2N1
< 1 nM

Another compound to look at: CC(=O)N1CCc2c(c(N3CCCc4cc(-c5cnn(C)c5)c(C)cc43)nn2C2CCN(C[C@H]3[C@H](C)CN(c4ccc(C(=O)N[C@H]5CC[C@H](Oc6ccc(C#N)c(Cl)c6)CC5)nn4)C[C@@H]3C)CC2)C1
< 1 nM

Further, for CC(=O)N1CCc2c(c(N3CCCc4cc(C#N)ccc43)nn2C2CCN(CC3(C)CCN(c4ccc(C(=O)N[C@H]5CC[C@H](Oc6ccc(C#N)c(Cl)c6)CC5)nn4)CC3)CC2)C1 ?
< 1 nM

Now this one: CC(=O)N1CCc2c(c(N3CCCc4cc(C#N)ccc43)nn2C2CC3(C2)CN(CC2CC4(C2)CN(c2ccc(C(=O)N[C@H]5CC[C@H](Oc6ccc(C#N)c(Cl)c6)CC5)nn2)C4)C3)C1 (stereo partly drawn)
< 1 nM

Same read-out for CC(=O)N1CCc2c(c(-c3cccc4cc(-c5cnn(CCC6CCN(c7ccc(C(=O)N[C@H]8CC[C@H](Oc9ccc(C#N)c(Cl)c9)CC8)nn7)CC6)c5)ncc34)nn2C2CCOCC2)C1 ?
< 1 nM

Where do the numbers come from? From patent US20250136578A1.
